# measured.on: T1, human iRhom2 (inactive rhomboid protein 2, isoform 1), endogenously expressed on human cells (human, UniProt Q6PJF5 1-856)
# T1 sequence: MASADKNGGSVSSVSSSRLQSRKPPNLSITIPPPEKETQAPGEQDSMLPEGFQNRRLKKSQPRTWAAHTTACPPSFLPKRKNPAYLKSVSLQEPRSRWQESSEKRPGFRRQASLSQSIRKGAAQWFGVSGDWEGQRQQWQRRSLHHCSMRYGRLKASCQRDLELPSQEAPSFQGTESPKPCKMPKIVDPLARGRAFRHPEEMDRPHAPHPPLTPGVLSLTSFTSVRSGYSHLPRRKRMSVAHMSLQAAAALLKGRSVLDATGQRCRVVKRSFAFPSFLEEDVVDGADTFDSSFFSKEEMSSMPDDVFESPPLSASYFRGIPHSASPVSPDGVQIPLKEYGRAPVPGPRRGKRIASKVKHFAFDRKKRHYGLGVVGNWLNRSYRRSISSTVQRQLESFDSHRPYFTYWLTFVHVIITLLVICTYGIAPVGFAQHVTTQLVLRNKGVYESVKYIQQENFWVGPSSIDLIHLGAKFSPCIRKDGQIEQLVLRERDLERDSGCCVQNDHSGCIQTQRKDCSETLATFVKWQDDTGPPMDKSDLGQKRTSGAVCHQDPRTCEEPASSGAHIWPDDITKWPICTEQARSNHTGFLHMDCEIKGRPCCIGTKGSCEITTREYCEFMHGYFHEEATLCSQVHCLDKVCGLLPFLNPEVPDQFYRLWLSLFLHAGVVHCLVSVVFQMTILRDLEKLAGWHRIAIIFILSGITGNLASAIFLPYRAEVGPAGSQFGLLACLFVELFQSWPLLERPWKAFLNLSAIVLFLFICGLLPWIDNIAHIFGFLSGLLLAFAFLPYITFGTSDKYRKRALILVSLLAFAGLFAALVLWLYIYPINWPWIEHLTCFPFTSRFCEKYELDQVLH
# assay.protocol: cell-based or functional assay
Examples of binders with documented inhibition of PMA-induced release of HB-EGF from THP-1 cells, 3 µg/ml follow.
Number first, unit second: that is the form wanted.

// solved cases for inhibition of PMA-induced release of HB-EGF from THP-1 cells, 3 µg/ml follow
- binder: "antibody 42 (antibody, V domains shown, Mouse IgG, kappa light chain; also called clone #42; m42) VH: QVTLKESGPGILQPSQTLSLTCSLSGFSLSTFGRGVGWIRQPSGKGLEWLAHIWWDDEKYYNPALKSRLTISKDTSKNQVFLRIANVDTADTATYYCARIQNYGSNYWYFDVWGTGTTVTVSS VL: LIVLTQSPAIMSASPGEKVTMTCGATSRISYMFWYQQKPGSSPRVLIYDTSNLASGVPVRFSGSGSGTSYSLTISRVEAEDVATYYCQQWNSYPLTFGAGTKLELK"
  measurement: "76.6 % inhibition"
- binder: "antibody 16 (antibody, V domains shown, Mouse IgG, kappa light chain; also called clone #16; m16) VH: QVTLKESGPGILQPSQTLSLTCSFSGFSLSTFALGVGWIRQPSGRGLEWLAHIWWDDDKYYNPALKSRLTISKDTSKNHVFLKIANVDTADTATYYCARITTYYYGMDYWGQGTSVTVSS VL: DIVLSQSPATLSVTPGDSVSLFCRASQSIGNHLHWYQQESHASPRLLIKYASQSISGIPSRFSGSGSGTDFTLSINSVETEDFGMYFCQQSYNWPLTFGAGTKLELK"
  measurement: "71.9 % inhibition"

Below: the item to evaluate.
Need inhibition of PMA-induced release of HB-EGF from THP-1 cells, 3 µg/ml of antibody 22 (antibody, V domains shown, Mouse IgG, kappa light chain; also called clone #22; m22) VH: QVTLKESGPGILQPSQTLSLTCSFSGFSLSTFGMGVGWIRQPSGKGLEWLAHIWWDDEKYYNSALKSRLTISKATSKNQVFLKIANVDTADTATYYCARISNYGSNYWYFNVWGTGTTVTVSS VL: QVVLTQSPALMSASPGEKVTMTCSAGSSVSYMYWYQQKPGSSPRVLIYDTSNLASGVPARFTGSGSGTSYSLTISRMEAEDAATYYCQQWNSYPLTFGAGTKLELK , thanks.
77.7 % inhibition

The values you see were collected from patent US20240174744A1.
